Listing of entries alongside the reported viability at 72 h, 1.25 ug/ml.
- Test Details: Cytotoxicity against human U937 cells assessed as cell viability at 1.25 ug/ml after 72 hrs by MTT assay
- Format: cell-based, U-937
- Applied Conditions: read-out: Activity
The answer is to be given in %; state only the numeric part.

# count of solved cases: 3
Q: // returns reported viability at 72 h, 1.25 ug/ml for input "C[C@H](NC(=O)OC(C)(C)C)C(=O)O/N=C1\c2ccccc2-c2c1c(N1CCN(c3ccccn3)CC1)nc1ccc(Br)cc21"
A: 100

Q: // returns reported viability at 72 h, 1.25 ug/ml for input "CCCCCCC(=O)O/N=C1\c2ccccc2-c2c1c(-n1ccnc1)nc1ccc(Br)cc21"
A: 85

Q: // returns reported viability at 72 h, 1.25 ug/ml for input CC(C)(C)OC(=O)NC(Cc1ccccc1)C(=O)O/N=C1\c2ccccc2-c2c1c(N1CCN(c3ccccn3)CC1)nc1ccc(Br)cc21 (stereo not drawn)
A: 87

Continuing:
Q: // returns reported viability at 72 h, 1.25 ug/ml for input CCCCCC(=O)OC1(C)c2ccccc2-c2c1c(-n1ccnc1)nc1ccc(Br)cc21 (stereo not drawn)
A: 85

Q: // returns reported viability at 72 h, 1.25 ug/ml for input "CCCCCCCCCC(=O)O/N=C1\c2ccccc2-c2c1c(-n1ccnc1)nc1ccc(Br)cc21"
A: 100

Q: // returns reported viability at 72 h, 1.25 ug/ml for input "O=C(CNC(=O)OCC1c2ccccc2-c2ccccc21)O/N=C1\c2ccccc2-c2c1c(N1CCN(c3ccccn3)CC1)nc1ccc(Br)cc21"
A: 68

Q: // returns reported viability at 72 h, 1.25 ug/ml for input "CCC(=O)O/N=C1\c2ccccc2-c2c1c(N1CCN(c3ccccn3)CC1)nc1ccc(Br)cc21"
A: 83

Q: // returns reported viability at 72 h, 1.25 ug/ml for input "CCCCCC(=O)O/N=C1\c2ccccc2-c2c1c(N1CCN(c3ccccn3)CC1)nc1ccc(Br)cc21"
A: 96

---

- Test Details: Cytotoxicity against human U937 cells assessed as cell viability at 10 ug/ml after 72 hrs by MTT assay
- Assay type: cell-based, U-937
- Applied Conditions: read-out: Activity
Listing of entries alongside the reported viability at 72 h, 10 ug/ml.

# count of solved cases: 2
Q: // returns reported viability at 72 h, 10 ug/ml for input CC(C)(C)OC(=O)NC(Cc1cccc(F)c1)C(=O)O/N=C1\c2ccccc2-c2c1c(N1CCN(c3ccccn3)CC1)nc1ccc(Br)cc21 (stereo unspecified)
A: 79%

Q: // returns reported viability at 72 h, 10 ug/ml for input CCCCC(=O)OC1(C)c2ccccc2-c2c1c(-n1ccnc1)nc1ccc(Br)cc21 (stereo unspecified)
A: 48%

Continuing:
Q: // returns reported viability at 72 h, 10 ug/ml for input CN(C)C(=O)OC1(C)c2ccccc2-c2c1c(-n1ccnc1)nc1ccc(Br)cc21 (stereo unspecified)
A: 69%

Q: // returns reported viability at 72 h, 10 ug/ml for input CC(C)(C)OC(=O)NC(Cc1ccccc1)C(=O)O/N=C1\c2ccccc2-c2c1c(N1CCN(c3ccccn3)CC1)nc1ccc(Br)cc21 (stereo unspecified)
A: 71%

Q: // returns reported viability at 72 h, 10 ug/ml for input "CCC(=O)O/N=C1\c2ccccc2-c2c1c(N1CCN(c3ccccn3)CC1)nc1ccc(Br)cc21"
A: 81%

Q: // returns reported viability at 72 h, 10 ug/ml for input "O=C(CNC(=O)OCC1c2ccccc2-c2ccccc21)O/N=C1\c2ccccc2-c2c1c(N1CCN(c3ccccn3)CC1)nc1ccc(Br)cc21"
A: 73%

Q: // returns reported viability at 72 h, 10 ug/ml for input "CCCCCCC(=O)O/N=C1\c2ccccc2-c2c1c(-n1ccnc1)nc1ccc(Br)cc21"
A: 67%

Q: // returns reported viability at 72 h, 10 ug/ml for input "CC(C)[C@H](NC(=O)OCC1c2ccccc2-c2ccccc21)C(=O)O/N=C1\c2ccccc2-c2c1c(N1CCN(c3ccccn3)CC1)nc1ccc(Br)cc21"
A: 81%

Q: // returns reported viability at 72 h, 10 ug/ml for input CCCCCC(=O)OC1(C)c2ccccc2-c2c1c(-n1ccnc1)nc1ccc(Br)cc21 (stereo unspecified)
A: 54%

Q: // returns reported viability at 72 h, 10 ug/ml for input "CCC(=O)O/N=C1\c2ccccc2-c2c1c(-n1ccnc1)nc1ccc(Br)cc21"
A: 75%

Q: // returns reported viability at 72 h, 10 ug/ml for input "CC(C)(C)OC(=O)N1CCC[C@H]1C(=O)O/N=C1\c2ccccc2-c2c1c(N1CCN(c3ccccn3)CC1)nc1ccc(Br)cc21"
A: 61%

Q: // returns reported viability at 72 h, 10 ug/ml for input "O=C(CCCCBr)O/N=C1\c2ccccc2-c2c1c(N1CCN(c3ccccn3)CC1)nc1ccc(Br)cc21"
A: 79%

Q: // returns reported viability at 72 h, 10 ug/ml for input CC1(OC(=O)CC(F)(F)F)c2ccccc2-c2c1c(-n1ccnc1)nc1ccc(Br)cc21 (stereo unspecified)
A: 62%

Q: // returns reported viability at 72 h, 10 ug/ml for input CC1(O)c2ccccc2-c2c1c(-n1ccnc1)nc1ccc(Br)cc21 (stereo unspecified)
A: 64%

Q: // returns reported viability at 72 h, 10 ug/ml for input "O/N=C1\c2ccccc2-c2c1c(-n1ccnc1)nc1ccc(Br)cc21"
A: 77%

---

Listing of entries alongside the reported viability at 72 h, 20 ug/ml.
- Test Details: Cytotoxicity against human U937 cells assessed as cell viability at 20 ug/ml after 72 hrs by MTT assay
- Format: cell-based, U-937
- Applied Conditions: read-out: Activity
The answer is to be given in %; state only the numeric part.

# count of solved cases: 7
Q: // returns reported viability at 72 h, 20 ug/ml for input CCCCCCC(=O)OC1(C)c2ccccc2-c2c1c(-n1ccnc1)nc1ccc(Br)cc21 (stereo not drawn)
A: 54

Q: // returns reported viability at 72 h, 20 ug/ml for input CC1(O)c2ccccc2-c2c1c(-n1ccnc1)nc1ccc(Br)cc21 (stereo not drawn)
A: 37

Q: // returns reported viability at 72 h, 20 ug/ml for input "CCC(=O)O/N=C1\c2ccccc2-c2c1c(N1CCN(c3ccccn3)CC1)nc1ccc(Br)cc21"
A: 83

Q: // returns reported viability at 72 h, 20 ug/ml for input "O/N=C1\c2ccccc2-c2c1c(N1CCN(c3ccccn3)CC1)nc1ccc(Br)cc21"
A: 49

Q: // returns reported viability at 72 h, 20 ug/ml for input "O=C(CCCCBr)O/N=C1\c2ccccc2-c2c1c(N1CCN(c3ccccn3)CC1)nc1ccc(Br)cc21"
A: 80

Q: // returns reported viability at 72 h, 20 ug/ml for input "CC(C)(C)OC(=O)N[C@H](C(=O)O/N=C1\c2ccccc2-c2c1c(N1CCN(c3ccccn3)CC1)nc1ccc(Br)cc21)C(C)(C)C"
A: 82

Q: // returns reported viability at 72 h, 20 ug/ml for input "CC(C)(C)OC(=O)N1CCC[C@H]1C(=O)O/N=C1\c2ccccc2-c2c1c(-n1ccnc1)nc1ccc(Br)cc21"
A: 78

Now consider the entry below.
Q: // returns reported viability at 72 h, 20 ug/ml for input CC1(OC(=O)CC(F)(F)F)c2ccccc2-c2c1c(-n1ccnc1)nc1ccc(Br)cc21 (stereo not drawn)
A: 26

---

- Test Details: Stability of the compound in 10% aqueous ammonia buffer at pH 8 assessed as hydrolysis to 2-bromo-6-(1H-imidazol-1-yl)-7H-indeno[2,1-c]quinolin-7-one oxime at 1 mg at 37 degC by LC-MS analysis
- Type: physicochemical
- Set-up: scale not given: the % may be the effect or the level left
Listing of entries alongside the reported Activity.
The answer is to be given in %; state only the numeric part.

# count of solved cases: 3
Q: // returns reported Activity for input "CC(C)(C)OC(=O)N1CCC[C@H]1C(=O)O/N=C1\c2ccccc2-c2c1c(N1CCN(c3ccccn3)CC1)nc1ccc(Br)cc21"
A: 95

Q: // returns reported Activity for input "CCCCCCC(=O)O/N=C1\c2ccccc2-c2c1c(-n1ccnc1)nc1ccc(Br)cc21"
A: 95

Q: // returns reported Activity for input "O=C(CCCCBr)O/N=C1\c2ccccc2-c2c1c(N1CCN(c3ccccn3)CC1)nc1ccc(Br)cc21"
A: 95

Continuing:
Q: // returns reported Activity for input CCCCCCC(=O)OC1(C)c2ccccc2-c2c1c(-n1ccnc1)nc1ccc(Br)cc21 (stereo not drawn)
A: 86

Q: // returns reported Activity for input CC(=O)OC1(C)c2ccccc2-c2c1c(-n1ccnc1)nc1ccc(Br)cc21 (stereo not drawn)
A: 90

Q: // returns reported Activity for input CCCCC(=O)OC1(C)c2ccccc2-c2c1c(-n1ccnc1)nc1ccc(Br)cc21 (stereo not drawn)
A: 90

Q: // returns reported Activity for input "O=C(/C=C/c1ccco1)O/N=C1\c2ccccc2-c2c1c(N1CCN(c3ccccn3)CC1)nc1ccc(Br)cc21"
A: 95

Q: // returns reported Activity for input "C[C@H](NC(=O)OC(C)(C)C)C(=O)O/N=C1\c2ccccc2-c2c1c(N1CCN(c3ccccn3)CC1)nc1ccc(Br)cc21"
A: 95
